Origin of measurements: paper PMC11077047

# system: T1, Zur H36A (Streptomyces coelicolor, UniProt Q9L2H5 1-139, H36A)
# T1 sequence: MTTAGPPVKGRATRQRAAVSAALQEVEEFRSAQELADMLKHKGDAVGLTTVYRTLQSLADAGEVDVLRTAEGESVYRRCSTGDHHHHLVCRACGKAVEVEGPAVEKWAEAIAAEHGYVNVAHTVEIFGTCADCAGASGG
# procedure text: ITC; 4.0 eq Zn2+ per Zur dimer; N=3.1 dimers per DNA; K=2.6e5 M-1; ITC: 20 mM HEPES pH 7.8, 150 mM NaCl, 0.5 mM TCEP, 25 C. EMSA: 20 mM Tris-HCl pH 7.8, 150 mM NaCl, 5 mM DTT, 0.1 mg/ml BSA, 5% glycerol, 0.1 ug poly(dI-dC) per
# protocol conditions: protein: recombinant; chain copies: 2; label: 6-FAM in EMSA; blunt
measured attribute: Kd
Report the figure along with its unit, number first.

Input line: Consider the binder zitB 33 bp (dsDNA) DNA 1: CAAGGCACATGACAACGGTGTTCAGTGCCGCGT DNA 2: ACGCGGCACTGAACACCGTTGTCATGTGCCTTG and give its measured Kd.
Output line: 3.9 µM
